measurementKind: melting point

CC(=O)N1c2c(CN3CCOCC3)cccc2NC2=C(C(=O)CC(C)(C)C2)C1c1ccc(Cl)cc1Cl (centres unmarked) : > 260 °C
CC1(C)CC(=O)C2=C(C1)Nc1ccccc1N(C(=O)N1CCCCC1)C2c1ccc(Cl)cc1Cl (centres unmarked) : > 260 °C

Quick one: give me melting point for each item below, same order please.
1. CC(=O)N1c2c(Br)cccc2NC2=C(C(=O)CC(C)(C)C2)C1c1ccc(Cl)cc1Cl (centres unmarked)
2. CC(=O)N1c2ccc(C(=O)O)cc2NC2=C(C(=O)CC(C)(C)C2)C1c1ccc(Cl)cc1Cl (centres unmarked)
3. CC1(C)CC(=O)C2=C(C1)Nc1cccc(CO)c1NC2c1ccc(Cl)cc1Cl (centres unmarked)
4. COC(=O)c1ccc2c(c1)NC1=C(C(=O)CC(C)(C)C1)C(c1ccc(Cl)cc1Cl)N2C(C)=O (centres unmarked)
5. CC1(C)CC(=O)C2=C(C1)Nc1ccccc1N(C(=O)CC#N)C2c1ccc(Cl)cc1Cl (centres unmarked)
6. CC(=O)N1c2cc(C#N)ccc2NC2=C(C(=O)CC(C)(C)C2)C1c1ccc(Cl)cc1Cl (centres unmarked)

> 260 °C
> 250 °C
> 260 °C
> 250 °C
> 260 °C
> 250 °C
